Target: T1, human IL-10RA-Fc fusion (human, UniProt Q13651 22-235)
T1 sequence: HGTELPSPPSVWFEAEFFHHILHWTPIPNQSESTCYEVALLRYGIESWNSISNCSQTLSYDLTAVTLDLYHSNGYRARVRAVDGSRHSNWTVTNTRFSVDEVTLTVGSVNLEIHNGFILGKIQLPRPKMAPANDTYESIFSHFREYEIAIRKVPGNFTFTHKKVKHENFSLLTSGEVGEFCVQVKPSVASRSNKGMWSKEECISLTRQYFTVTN
Test: filter binding; Double filter binding, 37 C, binding buffer not detailed; selection buffer 20 mM HEPES, 2 mM CaCl2, 0.1 mg/ml BSA, 100-150 mM NaCl, pH 7.5
Conditions: protein: commercial; tags: Fc fusion; chain copies: 2; label: 5' 32P
readout-name: Kd
Write the numeric value and append its unit.

binder="411-J-A1G (ssRNA) RNA: GGGAGAGAGGAAGAGGGAUGGGGGCCAUGACGAUGUCGUUACGUAGAUGCAGAGACUCCUAACGACGACUCGCUGAGAUCGAGA" readout_name=Kd reported_measurement="0.009 µM"

IN: Name the recorded Kd of the item 411-J-C28T (ssRNA) RNA: GGGAGAGAGGAAGAGGGAUGGGAGCCAUGACGAUGUCGUUACGUAGAUGUAGAGACUCCUAACGACGACUCGCUGAGAUCGAGA in your answer.
OUT: 0.018 µM

IN: Using known records, supply Kd for 411-J-G30T (ssRNA) RNA: GGGAGAGAGGAAGAGGGAUGGGAGCCAUGACGAUGUCGUUACGUAGAUGCAUAGACUCCUAACGACGACUCGCUGAGAUCGAGA
OUT: 0.018 µM

IN: Give a short answer stating reported Kd for 411-J-G7T (ssRNA) RNA: GGGAGAGAGGAAGAGGGAUGGGAGCCAUUACGAUGUCGUUACGUAGAUGCAGAGACUCCUAACGACGACUCGCUGAGAUCGAGA .
OUT: 0.018 µM
